Test system: MS2 coat protein
assay procedure: apparent KD of MS2 coat protein; designed switch direction (-1 OFF switch, 1 ON switch): -1; higher = weaker reporter binding
cond: input ligand: FMN 200 uM

{"columns": ["record sequence", "target of assay", "apparent KD of MS2 coat protein (nM)"],
 "data": [
  ["AAUAAGUUAGGAUAUACAUGAGGAUCACCCAUGUCCCACCCGUUACCUAUGACCAUAUGUAGAAGGAGCAAUAA [Exy#2] (Eterna round: R97, puzzle: Exclusion 3)", "MS2 coat protein", 62.1],
  ["GUAAUUAAUGUAGGAUAUGCAAGGCGAACCUAAGCAGAAGGACAUGAGGAUCACCCAUGUAUUGCGGUCUGCGUACAGAUCGCU [salish99_ExNG1_r4_008] (Eterna round: R96, puzzle: Exclusion NG 1)", "MS2 coat protein", 45.7],
  ["UGCUACGGAGGAUAUACAUGAGGAUCACCCAUGUGUGAGAUUUGGCCGAGAGGCCAGUGUAGAAGGCCGUAGCU [jl-ex3-4.19 jl mod] (Eterna round: R97, puzzle: Exclusion 3)", "MS2 coat protein", 615],
  ["UCCUUACUGGUCAGGAUAUACAUUCGCGGGUGGGUGUAGAAGGGACAUGAGGAUCACCCAUGUACGUUACAUCC [alecazam54g] (Eterna round: R97, puzzle: Brourd's mod of Exclusion 4)", "MS2 coat protein", 18],
  ["CAUCCUAUUGUAGGAUAUCCGCUUAUUAUAUUGGGAGAAGGACAUGAGGAUCACCCAUGUGUGUAAUCAGAUGUGCGUGUUAAC [an other try] (Eterna round: R96, puzzle: Exclusion NG 1)", "MS2 coat protein", 173]
]}

Cited source: the supplement of paper PMC9170038
